Biological target: CYP2C9 (Homo sapiens, UniProt P11712)
Sequence (P11712 whole entry): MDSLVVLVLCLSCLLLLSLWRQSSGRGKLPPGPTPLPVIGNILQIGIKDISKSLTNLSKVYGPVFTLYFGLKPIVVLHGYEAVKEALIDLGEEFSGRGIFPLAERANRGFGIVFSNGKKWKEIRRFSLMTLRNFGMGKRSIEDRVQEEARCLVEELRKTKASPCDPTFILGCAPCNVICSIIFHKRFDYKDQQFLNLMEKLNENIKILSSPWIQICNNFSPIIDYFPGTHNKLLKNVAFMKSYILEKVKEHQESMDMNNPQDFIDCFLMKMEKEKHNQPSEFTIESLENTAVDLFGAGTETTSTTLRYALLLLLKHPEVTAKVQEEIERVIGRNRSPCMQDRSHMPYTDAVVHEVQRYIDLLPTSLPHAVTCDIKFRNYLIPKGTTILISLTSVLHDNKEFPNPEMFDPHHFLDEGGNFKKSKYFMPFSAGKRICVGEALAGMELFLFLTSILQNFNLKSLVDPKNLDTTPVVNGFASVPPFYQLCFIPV
Test: Inhibition of CYP2C9 activity in pooled human liver microsomes (diclofenac and warfarin probes)
Format: in vitro ADME
Parameters: made in house; host or cells: HEK293 cells (microsomal fraction)
Conditions: Ki,u, 4′-hydroxylation of diclofenac; HLM; unbound, adjusted with fu,inc; mean ± SD
readout: Ki (nM)
Could you give me the number in nM? Just the number is fine.

The reported value for CCCCCc1cc(O)c2c(c1)OC(C)(C)C1CC=C(C)CC21 (centres unmarked) [Δ8-THC, Δ8-Tetrahydrocannabinol] in terms of Ki is 320

Ki measured on CCCCCc1cc(O)c2c(c1)OC(C)(C)C1CC=C(CO)CC21 (centres unmarked) [11-OH-Δ8-THC, 11-hydroxy-Δ8-THC] = 770

----------
System: CYP2C9 and CYP3A4
Assay: IC50,u / Ki,u summarised across all CYP2C9 and CYP3A4 enzyme-substrate pairs
Format: in vitro ADME
Settings: human, pH 7.4; both recombinant enzyme microsomes and HLM; read-out: IC50,u against CYPs 2C9 and 3A4
pIC50: −log10 of the molar value.
readout: pIC50

// sample CCCCCc1cc(O)c2c(c1)OC(C)(C)C1CC=C(C)CC21 (stereo not shown) [Δ8-THC, Δ8-Tetrahydrocannabinol] , its pIC50 was > 6.30

----------
Biological target: CYP3A4 (Homo sapiens, UniProt P08684)
Sequence (P08684 whole entry): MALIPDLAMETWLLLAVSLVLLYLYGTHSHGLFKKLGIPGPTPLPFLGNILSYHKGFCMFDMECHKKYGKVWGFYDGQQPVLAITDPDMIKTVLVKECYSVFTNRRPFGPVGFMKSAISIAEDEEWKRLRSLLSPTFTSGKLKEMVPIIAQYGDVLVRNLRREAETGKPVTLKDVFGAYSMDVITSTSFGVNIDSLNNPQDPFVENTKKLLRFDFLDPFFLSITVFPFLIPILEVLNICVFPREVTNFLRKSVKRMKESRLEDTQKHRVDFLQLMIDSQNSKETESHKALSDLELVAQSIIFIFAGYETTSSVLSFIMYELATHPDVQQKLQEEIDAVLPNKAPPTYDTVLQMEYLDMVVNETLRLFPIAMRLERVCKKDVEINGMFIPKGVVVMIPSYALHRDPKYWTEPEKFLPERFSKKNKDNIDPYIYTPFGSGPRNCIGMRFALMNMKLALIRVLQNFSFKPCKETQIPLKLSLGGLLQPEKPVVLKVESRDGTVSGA
Assay: Inhibition of CYP3A4 activity in pooled human liver microsomes (midazolam probe)
Assay type: in vitro ADME
Parameters: made in house; host or cells: HEK293 cells (microsomal fraction)
For each of the molecules below, state its pKi.
pKi here is simply -log10 of the concentration when that concentration is written in mol/L.

Measured pKi, CCCCCc1cc(O)c2c(c1)OC(C)(C)C1CC=C(CO)CC21 (centres unmarked) [11-OH-Δ8-THC, 11-hydroxy-Δ8-THC] : 5.92

Record summary for CCCCCc1cc(O)c2c(c1)OC(C)(C)C1CC=C(C)CC21 (centres unmarked) [Δ8-THC, Δ8-Tetrahydrocannabinol] : reported pKi = 6.28

----------
Target: CYP2C9 (Homo sapiens, UniProt P11712)
Assay: IC50 shift assay in recombinant CYP2C9 microsomes
Assay type: in vitro ADME
Set-up: made in house
Settings: recombinant CYP2C9-overexpressing microsomes, probe diclofenac (4′-hydroxylation), 4′-hydroxylation of diclofenac, rec CYP2C9, 30-min preincubation minus vs plus NADPH, mean ± SD
Task for the reader: assign each of the following compounds its reported IC50 shift at 30 min.
Give a plain numeric answer without units written out.

Fill in: CYP2C9 (Homo sapiens, UniProt P11712) IC50 shift at 30 min for CCCCCc1cc(O)c2c(c1)OC(C)(C)C1CC=C(C)CC21 (centres unmarked) [Δ8-THC, Δ8-Tetrahydrocannabinol] = 1.24

Test item CCCCCc1cc(O)c2c(c1)OC(C)(C)C1CC=C(CO)CC21 (centres unmarked) [11-OH-Δ8-THC, 11-hydroxy-Δ8-THC] ; CYP2C9 (Homo sapiens, UniProt P11712); reported IC50 shift at 30 min was 0.95

----------
Biological target: CYP2C9 (Homo sapiens)
Test: Inhibition of CYP2C9 activity in pooled human liver microsomes (diclofenac and warfarin probes)
Assay type: in vitro ADME
Parameters: made in house; host or cells: HEK293 cells (microsomal fraction)
Conditions: IC50,u, warfarin -> 7′-hydroxywarfarin; HLM; unbound, adjusted with fu,inc; mean ± SD
I'd appreciate it if you could supply pIC50 values for the items below.
# pIC50: negative log10 of molar concentration; output just the value

CCCCCc1cc(O)c2c(c1)OC(C)(C)C1CC=C(CO)CC21 (centres unmarked) [11-OH-Δ8-THC, 11-hydroxy-Δ8-THC] yielded pIC50 of 5.76

Looking up CCCCCc1cc(O)c2c(c1)OC(C)(C)C1CC=C(C)CC21 (centres unmarked) [Δ8-THC, Δ8-Tetrahydrocannabinol] , I see its pIC50 listed as 6.36
